Some compounds, each annotated with its measured Activity.
System: SK-OV-3
test.method.notes: Cell cycle arrest in human SKOV3 cells assessed as accumulation at S phase at 5 nM after 24 hrs by propidium iodide staining-based flow cytometry (reference value: 31.2%)
Type: functional
measured.quantity: Activity (%)

>  <chemical.string>
COc1ccc(/C=C\c2cc(I)c(OC)c(I)c2)cc1O

>  <scale.unit>
%

>  <reported.result>
12.9

$$$$
>  <chemical.string>
COc1ccc(/C=C\c2cc(OC)c(OC)c(OC)c2)cc1O

>  <scale.unit>
%

>  <reported.result>
23.1

$$$$
>  <chemical.string>
COc1ccc(/C=C\c2cc(Cl)c(OC)c(Cl)c2)cc1O

>  <scale.unit>
%

>  <reported.result>
18.6

$$$$
>  <chemical.string>
COc1ccc(/C=C\c2cc(Br)c(OC)c(Br)c2)cc1O

>  <scale.unit>
%

>  <reported.result>
21

$$$$

* * *

Listing: pEC50 of selected molecules
Test system: HUVEC
test.method.notes: Antiproliferative activity against growth factor-induced HUVEC assessed as growth inhibition after 48 hrs by MTS assay
Type: functional, cell-based
condition.notes: Homo sapiens
pEC50: −log10 of the molar value.

>  <chemical.string>
COc1ccc(/C=C\c2cc(OC)c(OC)c(OC)c2)cc1O

>  <target>
HUVEC

>  <pEC50>
8.49

$$$$
>  <chemical.string>
COc1ccc(/C=C\c2cc(Br)c(OC)c(Br)c2)cc1O

>  <target>
HUVEC

>  <pEC50>
9.70

$$$$

* * *

EC50 by entry:
Tested on: SK-OV-3
test.method.notes: Cytotoxicity against taxol-resistant human SKOV3 cells assessed as cell viability after 48 hrs by MTS assay
Format: functional, cell-based
condition.notes: SK-OV-3, 48 h

>  <compound>
COc1ccc(/C=C\c2cc(OC)c(OC)c(OC)c2)cc1O [COMBRETASTATIN A4]

>  <scale.unit>
nM

>  <EC50>
3.1

$$$$
>  <compound>
COc1ccc(/C=C\c2cc(Br)c(OC)c(Br)c2)cc1O

>  <scale.unit>
nM

>  <EC50>
1.1

$$$$
